- SUBJECT_OF_TEST: human CD33 R119A (human, UniProt P20138 18-364)
- Sequence (P20138 18-364 R119A limits assumed): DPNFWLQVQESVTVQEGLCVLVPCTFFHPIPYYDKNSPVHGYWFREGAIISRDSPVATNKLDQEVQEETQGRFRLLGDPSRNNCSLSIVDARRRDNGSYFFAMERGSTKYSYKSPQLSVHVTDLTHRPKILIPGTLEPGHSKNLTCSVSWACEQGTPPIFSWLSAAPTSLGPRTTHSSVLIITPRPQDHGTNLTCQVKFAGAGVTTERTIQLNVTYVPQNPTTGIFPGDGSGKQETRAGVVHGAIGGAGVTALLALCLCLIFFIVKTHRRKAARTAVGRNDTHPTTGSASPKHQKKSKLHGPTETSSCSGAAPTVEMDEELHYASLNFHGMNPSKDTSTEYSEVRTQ
- MEASUREMENT_DESCRIPTION: flow cytometry on HEK293-T, alanine scan
PROPERTY_NAME: Mean % WT Binding

INSERT INTO assay_data (binder, observed_value) VALUES
  ('Refmab #2 (antibody, V domains shown, The alanine scan used IgG or Fab) VH: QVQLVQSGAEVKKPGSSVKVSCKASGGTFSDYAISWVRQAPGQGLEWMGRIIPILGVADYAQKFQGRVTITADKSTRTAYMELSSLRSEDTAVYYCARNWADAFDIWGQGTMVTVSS VL: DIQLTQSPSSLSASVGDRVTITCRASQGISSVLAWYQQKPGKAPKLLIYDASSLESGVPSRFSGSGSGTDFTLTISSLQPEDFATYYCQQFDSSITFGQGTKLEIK', '130 % WT binding');

Can you give me Mean % WT Binding for all of these, one by one?
1. Refmab #1 (antibody, V domains shown, The alanine scan used IgG or Fab; also called hP67.6) VH: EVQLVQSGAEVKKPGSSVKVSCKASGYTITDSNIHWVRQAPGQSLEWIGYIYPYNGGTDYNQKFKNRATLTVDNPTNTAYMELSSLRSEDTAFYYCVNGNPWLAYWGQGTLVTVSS VL: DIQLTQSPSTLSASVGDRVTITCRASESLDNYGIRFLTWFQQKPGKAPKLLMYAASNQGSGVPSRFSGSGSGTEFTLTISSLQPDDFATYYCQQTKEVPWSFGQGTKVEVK
2. Refmab #4 (antibody, V domains shown, The alanine scan used IgG or Fab) VH: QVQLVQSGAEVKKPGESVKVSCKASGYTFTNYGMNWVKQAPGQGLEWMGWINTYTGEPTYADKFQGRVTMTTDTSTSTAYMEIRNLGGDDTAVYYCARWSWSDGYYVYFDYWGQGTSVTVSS VL: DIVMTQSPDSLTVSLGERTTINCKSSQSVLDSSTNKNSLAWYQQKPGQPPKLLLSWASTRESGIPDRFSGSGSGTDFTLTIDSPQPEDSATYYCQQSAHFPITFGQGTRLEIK

109 % WT binding
138 % WT binding
